# MEASUREMENT_TARGET: Interstitial collagenase (Homo sapiens, UniProt P03956)
# Sequence (P03956 whole entry): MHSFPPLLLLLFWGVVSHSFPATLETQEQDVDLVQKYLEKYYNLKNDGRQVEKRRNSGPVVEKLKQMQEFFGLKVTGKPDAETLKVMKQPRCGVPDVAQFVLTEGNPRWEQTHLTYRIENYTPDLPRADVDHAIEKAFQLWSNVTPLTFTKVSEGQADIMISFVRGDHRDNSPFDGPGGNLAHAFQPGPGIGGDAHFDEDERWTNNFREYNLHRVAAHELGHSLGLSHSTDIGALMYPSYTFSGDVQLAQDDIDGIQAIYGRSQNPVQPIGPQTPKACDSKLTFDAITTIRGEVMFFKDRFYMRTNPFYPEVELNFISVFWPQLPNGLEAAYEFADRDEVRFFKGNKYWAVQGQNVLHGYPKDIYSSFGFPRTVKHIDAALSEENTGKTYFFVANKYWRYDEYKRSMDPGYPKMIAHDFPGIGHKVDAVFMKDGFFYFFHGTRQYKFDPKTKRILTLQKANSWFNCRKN
READOUT: Ki (µM)

Sample answers from the record:
O=C(CNS(=O)(=O)N1CCC(Oc2ccc(-n3ccnc3)cc2)CC1)NO :: 0.224
O=C(CCC(=O)N1CCC(Oc2ccc(-n3ccnc3)cc2)CC1)NO :: 0.224
O=C(CCS(=O)(=O)c1ccc(Oc2ccncc2)cc1)NO :: 0.0082

(I) COc1ccc(C(=O)NCC(=O)NO)cc1
(II) O=C(CNS(=O)(=O)c1ccc(Oc2ccncc2)cc1)NO
From the items above, decide which of I and II has the lower Ki reading. Respond using the label that marks the chosen record.
II
(II: 0.0082 µM, I: 0.033 µM)

(A) O=C(CCC(=O)c1ccc(Oc2ccncc2)cc1)NO
(B) O=C(CNC(=O)N1CCC(Oc2ccc(-n3ccnc3)cc2)CC1)NO
From the items above, decide which of A and B has the lower Ki reading. Respond using the label that marks the chosen record.
A

====

# collection of IC50 values tested on Interstitial collagenase (Homo sapiens)
READOUT: IC50 (nM)

Sample answers from the record:
Cc1cc(F)ccc1COc1ccc(C(=O)CCC(=O)NO)cc1 :: 10
CCCCOc1ccc(S(=O)(=O)CCC(=O)NO)cc1 :: 920
CC#COc1ccc(S(=O)(=O)CCC(=O)NO)cc1 :: 121

(1) CC#COc1ccc(C(=O)CCC(=O)NO)cc1
(2) O=C(CNC(=O)c1ccc(Oc2ccccc2)cc1)NO
Which record would sort first by descending IC50, 1 or 2 ? Respond using the label that marks the chosen record.
1

(A) CC#COc1ccc(C(=O)NCC(=O)NO)cc1
(B) CCCCOc1ccc(S(=O)(=O)NCC(=O)NO)cc1
From the items above, decide which of A and B has the lower IC50 reading. Respond using the label that marks the chosen record.
A

(A) CCCCOc1ccc(C(=O)NCC(=O)NO)cc1
(B) Cc1cc(F)ccc1COc1ccc(C(=O)NCC(=O)NO)cc1
Which record would sort first by descending IC50, A or B ? Respond using the label that marks the chosen record.
A
(A: 920 nM, B: 10 nM)
